- target_entity: T1, murine IL-21R extracellular domain His-Flag fusion protein (murine, UniProt Q9JHX3 20-237)
- T1 construct: Biotinylated in the ELISAs; also called mIL-21R-H/F; murine IL-21R-H/F
- measurement_notes: competition ELISA; competitor plate-bound 18A5 IgG
reported_endpoint: IC50 (nM)

>>> numeric_readout("scFv L6 (scFv) scFv: QVQLQESGPGLVKTSETLSLTCAVSGYSISSGYYWGWIRQPPGKGLEWIGSISHTGNTYYNPPLKSRVTISVDTSKNQFSLKLSSVTAADTAVYYCARGGGISRPEYWGKGTLVTVSSGGGGSGGGGSGGGGSALSSELTQDPPVSVALGQTVTLTCQGDSLRTYYASWYQQKSGQAPILLLYGKHKRPSGIPDRFSGSTSGDTASLTITGAQAEDEADYYCMSRSIWGNPHVLFGGGTQLTVL")
4
>>> numeric_readout("scFv L14 (scFv) scFv: QVQLQESGPGLVKTSETLSLTCAVSGYSISSGYYWGWIRQPPGKGLEWIGSISHTGNTYYNPPLKSRVTISVDTSKNQFSLKLSSVTAADTAVYYCARGGGISRPEYWGKGTLVTVSSGGGGSGGGGSGGGGSALSSELTQDPPVSVALGQTVTLTCQGDSLRTYYASWYQQKSGQAPILLLYGKHKRPSGIPDRFSGSTSGDTASLTITGAQAEDEADYYCMARSRKGNPHVLFGGGTQLTVL")
6
>>> numeric_readout("scFv L3 (scFv) scFv: QVQLQESGPGLVKTSETLSLTCAVSGYSISSGYYWGWIRQPPGKGLEWIGSISHTGNTYYNPPLKSRVTISVDTSKNQFSLKLSSVTAADTAVYYCARGGGISRPEYWGKGTLVTVSSGGGGSGGGGSGGGGSALSSELTQDPPVSVALGQTVTLTCQGDSLRTYYASWYQQKSGQAPILLLYGKHKRPSGIPDRFSGSTSGDTASLTITGAQAEDEADYYCVSRAVVGNPHVLFGGGTQLTVL")
100
